Tested on: Mouse polyclonal antibody Rapa-DVS #9
Assay: Inhibition ELISA of mouse polyclonal serum Rapa-DVS #9
Assay type: binding
I'd appreciate it if you could supply Percent inhibition of mouse polyclonal antibody Rapa-DVS #9 values for the items below.
Please state the figure in %; there is no need to write the unit.

Input: With Mouse polyclonal antibody Rapa-DVS #9 as the test system, provide measured Percent inhibition of mouse polyclonal antibody Rapa-DVS #9 for this compound: CO[C@@H]1C[C@H](C[C@@H](C)[C@@H]2CC(=O)[C@H](C)/C=C(\C)[C@@H](O)[C@@H](OC)C(=O)[C@H](C)C[C@H](C)/C=C/C=C/C=C(\C)[C@@H](O)C[C@@H]3CC[C@@H](C)[C@@](O)(O3)C(=O)C(=O)N3CCCC[C@H]3C(=O)O2)CC[C@H]1O [M3, 7-O-Demethyl Rapamycin]
Output: 30.8

Input: Provide Percent inhibition of mouse polyclonal antibody Rapa-DVS #9, system Mouse polyclonal antibody Rapa-DVS #9, entry CO[C@H]1C[C@@H]2CC[C@@H](C)[C@@](O)(O2)C(=O)C(=O)N2CCCC[C@H]2C(=O)O[C@H]([C@H](C)C[C@@H]2CC[C@@H](O)[C@H](O)C2)CC(=O)[C@H](C)/C=C(\C)[C@@H](O)[C@@H](O)C(=O)[C@H](C)C[C@H](C)/C=C/C=C/C=C/1C [M5, 32,41-Demethyl Rapamycin]
Output: 37.3

Input: Enter recorded Percent inhibition of mouse polyclonal antibody Rapa-DVS #9 with Mouse polyclonal antibody Rapa-DVS #9 for CO[C@H]1C[C@@H]2CC[C@@H](C)[C@@](O)(O2)C(=O)C(=O)N2CCCC[C@H]2C(=O)O[C@H]([C@H](C)C[C@@H]2CC[C@@H](O)[C@H](O)C2)CC(=O)[C@H](C)/C=C(\C)[C@@H](O)[C@@H](OC)C(=O)[C@H](C)C[C@H](C)/C=C/C=C/C=C/1C [M4, 41-O-Demethyl Rapamycin] here.
Output: 28.6

Input: Report Percent inhibition of mouse polyclonal antibody Rapa-DVS #9 on Mouse polyclonal antibody Rapa-DVS #9 for this entry: C=CC[C@@H]1/C=C(\C)C[C@H](C)C[C@H](OC)[C@H]2O[C@@](O)(C(=O)C(=O)N3CCCC[C@H]3C(=O)O[C@H](/C(C)=C/[C@@H]3CC[C@@H](O)[C@H](OC)C3)[C@H](C)[C@@H](O)CC1=O)[C@H](C)C[C@@H]2OC [FK, FK-506]
Output: 13.0
